FYI, the data here is from PubChem BioAssay (NCI).

# Test system: OVCAR-5 ovarian
# protocolNotes: NCI tumour cell line growth inhibition, 48 h
endpointLabel: TGI

Would you mind telling me what TGI value was observed for O=C(NC1CCCCC1)OCc1c(COC(=O)NC2CCCCC2)c(-c2ccc(Cl)c(Cl)c2)n2c1CCC2 ?
44.3 µM

Would you mind telling me what TGI value was observed for CCc1n[nH]c(=O)n1N1C(=O)C2CCCCC2C1=O (stereo not drawn) ?
> 100 µM

Would you mind telling me what TGI value was observed for C(CCCCc1nnc(N2CCOCC2)o1)CCCc1nnc(N2CCOCC2)o1 ?
> 100 µM

Would you mind telling me what TGI value was observed for S=c1ssnc1-c1ccccn1 ?
25.1 µM

Would you mind telling me what TGI value was observed for CC(=O)/C(=C/n1ccc(=O)[nH]c1=S)C(=O)Nc1ccccc1C ?
> 100 µM

Would you mind telling me what TGI value was observed for Cc1noc(C)c1-n1nc2ccc3nonc3c2n1 ?
> 100 µM

Would you mind telling me what TGI value was observed for C=CC1(c2ccc(-c3ccccc3)cc2)OCCO1 ?
> 100 µM

Would you mind telling me what TGI value was observed for C/C(=N\OCC(O)CNC(C)C)c1ccc2c(c1)NC(=O)CS2 (stereo not drawn) ?
> 100 µM

---

Please provide measured TGI for the entries that follow.
# System: SK-MEL-5 melanoma
# protocolNotes: NCI tumour cell line growth inhibition, 48 h

Would you mind telling me what TGI value was observed for Nc1nc(N)c2nc(CNc3ccc(C(=O)NC(CCC(=O)O)C(=O)O)cc3F)cnc2n1 (centres undefined) ?
> 100 µM

Would you mind telling me what TGI value was observed for COc1cc2c(cc1O)CC[C@@H]1[C@@H]2CC[C@]2(C)[C@@H](OCCCN(C)C)CC[C@@H]12 ?
0.154 µM

Would you mind telling me what TGI value was observed for Cc1noc(C)c1-n1nc2ccc3nonc3c2n1 ?
> 100 µM

Would you mind telling me what TGI value was observed for CCc1n[nH]c(=O)n1N1C(=O)C2CCCCC2C1=O (centres undefined) ?
> 100 µM

Would you mind telling me what TGI value was observed for CC(C)(O)[C@@H]1CC[C@](C)(C2[C@@H](O)C[C@@]3(C)C4C[C@H](OC5OCC(O)C(O)C5O)[C@H]5C(C)(C)[C@@H](OC6OCC(O)C(O)C6OC6OCC(O)C(O)C6O)CC[C@@]56C[C@@]46CC[C@]23C)O1 (some centres undefined) ?
> 100 µM

Would you mind telling me what TGI value was observed for O=C(O)CNCP(=O)(O)O ?
> 100 µM

Would you mind telling me what TGI value was observed for OCn1nc2c(C3OCCO3)cc3ccccc3n2c1=S ?
> 100 µM

Would you mind telling me what TGI value was observed for COc1cc(OC)c2nc3occc3c(OC)c2c1 ?
> 100 µM

Would you mind telling me what TGI value was observed for CC(=O)/C(=C/n1ccc(=O)[nH]c1=S)C(=O)Nc1ccccc1C ?
> 100 µM

Would you mind telling me what TGI value was observed for O=C(CSc1ncnc2nc[nH]c12)c1ccccc1 ?
> 100 µM

Would you mind telling me what TGI value was observed for Cc1n[nH]c(=S)n1/N=C/c1ccc(-c2ccc(Cl)cc2)o1 ?
> 100 µM

Would you mind telling me what TGI value was observed for Nc1nc(N)c2ncn(-c3ccc(Br)cc3)c2n1 ?
> 100 µM

Would you mind telling me what TGI value was observed for O=C1NC(N/N=C/c2cccs2)=N/C1=C\c1ccco1 ?
> 100 µM

Would you mind telling me what TGI value was observed for O=c1[nH]ccc2c1ccn2C1CC(O)C(CO)O1 (centres undefined) ?
> 100 µM

Would you mind telling me what TGI value was observed for O=C1CCc2c(Oc3ccc4c(c3)[C@H]3[C@@H](O4)[C@@H]3c3nc4ccc(C(F)(F)F)cc4[nH]3)ccnc2N1 ?
2.91 µM

Would you mind telling me what TGI value was observed for COc1ccc(OC)c(/C=C/C(=O)N/N=C/c2ccccc2)c1 ?
14.6 µM

Would you mind telling me what TGI value was observed for COC(=O)C1=C(O)C(C(=O)OC)[C@]2(O)[C@@H](C(=O)OC)[C@H]1[C@H](C)[C@@H](c1ccccc1)[C@@H]2C(=O)OC (some centres undefined) ?
> 100 µM

Would you mind telling me what TGI value was observed for COc1ccc(C(=O)c2cc(OC)c(OC)c(OC)c2)cc1OC(=O)C(Cl)(Cl)Cl ?
0.329 µM

Would you mind telling me what TGI value was observed for O=C1c2c(c(-c3ccccc3)c(-c3ccccc3)c(-c3ccccc3)c2-c2ccccc2)C(=O)N1c1cccc(Br)c1 ?
> 100 µM

Would you mind telling me what TGI value was observed for NC(=S)C1=C(N)Oc2c(c(=O)oc3ccccc23)C1c1ccc(Br)cc1 (centres undefined) ?
> 100 µM

Would you mind telling me what TGI value was observed for CC(=O)OC(C)(C)C1O[C@@]23OC1C[C@@H](C)[C@@H]2[C@@]1(C)CC[C@@]24C[C@@]25CC[C@H](OC2OCC(O)C(O)C2O)C(C)(C)[C@@H]5CCC4[C@]1(C)[C@H]3O (some centres undefined) ?
23.3 µM

Would you mind telling me what TGI value was observed for CCCC(=O)OCC1OC(n2cnc3c(=S)nc(N)[nH]c32)C(OC(=O)CCC)C1OC(=O)CCC (centres undefined) ?
19.5 µM

Would you mind telling me what TGI value was observed for COc1ccc([C@H]2CC(=O)C[C@H](c3ccc(OC)cc3OC)C23C(=O)c2ccccc2C3=O)c(OC)c1 ?
> 100 µM

Would you mind telling me what TGI value was observed for COC(=O)/C(=N\NC(N)=O)C(C(=O)C(=O)Nc1ccccc1C(=O)OC)c1nc2ccc(C(=O)c3ccccc3)cc2[nH]c1=O (centres undefined) ?
> 100 µM
